Tested on: HT-29
Assay: 72 h MTT cell viability HT-29
Assay type: cell-based
Settings: Homo sapiens, HT29, Table III, read-out: Cellular effect in mammalian cells IC50 HT29
Measured IC50 accompanies every entry in the list below.

{"compound": "CCCn1cc(-c2ccnc(Nc3cccc(S(N)(=O)=O)c3)n2)c2ccncc21 [SG51]", "IC50 / nM": 20}
{"compound": "CCCn1cc(-c2ccnc(Nc3ccc(C)c(S(=O)(=O)N4CCOCC4)c3)n2)c2ccncc21 [SG52]", "IC50 / nM": 450}
{"compound": "CCCn1cc(-c2ccnc(Nc3ccc(S(N)(=O)=O)cc3)n2)c2nc(Cl)cc(C)c21 [SG54]", "IC50 / nM": 150}

----------
Molecular target: CDK2/cyclinA (Homo sapiens)
Construct: purchased Invitrogen PV3267
Assay: Z'-LYTE kinase assay CDK2/cyclinA
Assay type: biochemical
Settings: read-out: Kinase inhibition, IC50 CDK2A
pIC50: −log10 of the molar value.
We begin with a simple list: items and their reported pIC50.

{"compound": "Oc1cccc(Nc2nccc(-c3cn(Cc4ccccc4)c4ccccc34)n2)c1", "valueModifier": "=", "pIC50": 5.39}
{"compound": "CCn1cc(-c2ccnc(Nc3ccc(O)cc3)n2)c2ccnc(Cl)c21", "valueModifier": "=", "pIC50": 7.80}
{"compound": "Cc1cc(O)cc(C)c1Nc1nccc(-c2cn(C)c3ccccc23)n1", "valueModifier": "≤", "pIC50": 4.00}
{"compound": "CCn1cc(-c2ccnc(Nc3ccc(O)cc3)n2)c2ccccc21", "valueModifier": "=", "pIC50": 8.52}
{"compound": "CCCn1cc(-c2ccnc(Nc3cccc(C(=O)N4CCN(C)CC4)c3)n2)c2cccnc21", "valueModifier": "=", "pIC50": 5.87}

----------
Test: Pharmacokinetic determination, rat IV/PO study
Assay type: in vivo
Details: male, Sprague-Dawley, plasma, PO (20 mg/kg), read-out: MRT(0-∞)

{"molecule": "CCn1cc(-c2ccnc(Nc3cccc(S(N)(=O)=O)c3)n2)c2cccnc21 [Compound 18]", "MRT inf": "1.67 h"}

----------
Biological target: Aurora B (Homo sapiens)
Sequence (Q96GD4 whole entry): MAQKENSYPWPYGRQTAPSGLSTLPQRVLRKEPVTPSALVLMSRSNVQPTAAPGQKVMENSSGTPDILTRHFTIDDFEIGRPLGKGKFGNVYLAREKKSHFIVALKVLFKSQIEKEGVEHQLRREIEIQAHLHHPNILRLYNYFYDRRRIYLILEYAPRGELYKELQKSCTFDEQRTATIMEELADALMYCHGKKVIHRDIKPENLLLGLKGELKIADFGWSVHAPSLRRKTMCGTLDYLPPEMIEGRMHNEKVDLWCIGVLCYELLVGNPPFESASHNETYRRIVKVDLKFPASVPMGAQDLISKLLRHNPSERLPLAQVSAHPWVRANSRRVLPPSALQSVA
Assay: Kinase assay Aurora B (Table I)
Format: biochemical
Details: read-out: Kinase inhibition, IC50 Aurora B
Recorded IC50 by entry

{"compound": "Cn1cc(-c2ccnc(Nc3ccc(O)cc3Cl)n2)c2ccccc21", "IC50": "> 10 µM"}
{"compound": "CCn1cc(-c2ccnc(Nc3cccc(O)c3)n2)c2ccnc(Cl)c21", "IC50": "0.93 µM"}
{"compound": "CCn1cc(-c2ccnc(Nc3cccc(C#N)c3)n2)c2cccnc21", "IC50": "> 10 µM"}
{"compound": "CCn1cc(-c2ccnc(Nc3cccc(O)c3)n2)c2cccnc21", "IC50": "2.05 µM"}
{"compound": "Cc1cc(O)ccc1Nc1nccc(-c2cn(C)c3ccccc23)n1", "IC50": "> 10 µM"}
{"compound": "CCCn1cc(-c2ccnc(Nc3ccc(S(N)(=O)=O)cc3)n2)c2ccncc21", "IC50": "0.0016 µM"}
{"compound": "CCCn1cc(-c2ccnc(Nc3cccc([N+](=O)[O-])c3)n2)c2cccnc21", "IC50": "> 10 µM"}
{"compound": "CCn1cc(-c2ccnc(Nc3cccc([N+](=O)[O-])c3)n2)c2cccnc21", "IC50": "> 10 µM"}
{"compound": "CCCn1cc(-c2ccnc(Nc3cccc(C(=O)N4CCN(C)CC4)c3)n2)c2cccnc21", "IC50": "> 10 µM"}
